- experimental details: qHTS for differential inhibitors of proliferation of Plasmodium falciparum line 7G8 (AID 1815);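 further: parasite growth measured after three days of incubation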
- conditions used: Plasmodium falciparum 7G8 proliferation inhibition; series mostly up to 28.7 µM
Records with an inconclusive call do not appear. Calls of active or inactive are those of the source. The call rests on the fitted dose curve; in most records, active means well fitted curve in the direction sought with a large enough effect; inconclusive means small, poorly fitted or top-dose-only effect, or another doubt; inactive means no such curve, though single readings can be large or run the other way.
Answer with one of the outcomes active, inactive

CCCN1CCCC(c2cccc(O)c2)C1 (stereo not given): active
C[C@]12CC[C@H]3[C@@H](CCC4C[C@H](O)CC[C@@]43C)[C@@H]1CC[C@@H]2O (stereo not given in full): inactive
CCCN1CCc2cc(O)cc3c2C1Cc1ccc(O)c(O)c1-3 (stereo not given): active
COc1ccc2c(c1O)-c1cccc3c1C(C2)N(C)CC3 (stereo not given): active

We next turn to a different compound, shown below.
Look up the recorded call for CC(C)(O)C1C2OC(=O)C1[C@]1(O)C[C@H]3O[C@]34C(=O)O[C@H]2[C@]14C (stereo not given in full) (tested in a mixture with another compound) in this test. inactive

====

- System: ATS189
- experimental details: qHTS profiling for inhibitors of Plasmodium falciparum proliferation (AID 504749); further: nearly all actives have a fitted effect of over 60% in size
- conditions used: P. falciparum in erythrocytes, SYBR Green DNA, 72 h; series mostly up to 28.7 µM
Inconclusive results are not listed. The source made the active and inactive calls. Calls come from the whole dose curve; as a rule, active = well fitted inhibition curve with a large enough effect; inconclusive = small, poorly fitted or top-dose-only effect; inactive = flat fitted curve, though single readings scatter.
The reply should name one outcome from t = active, f = inactive

C[C@]12CC[C@H](OS(=O)(=O)O)CC1=CCC1C2CC[C@]2(C)C(=O)CC[C@@H]12 (stereo partly drawn): f
O=[As]O[As]=O (stereo not drawn): t
C[C@@]12CC[C@H]3[C@@H](CC[C@@H]4C[C@H]5S[C@H]5C[C@]43C)[C@H]1CC[C@H]2O: f

# lookup: test call for N[C@H]1C[C@H]1c1ccccc1 f

Again, but for CC(C)c1c(CN(C)[C@@H](C)Cc2ccccc2)n(C)n(-c2ccccc2)c1=O f

Consider next the compound NCC[C@H](O)C(=O)N[C@H]1C[C@@H](N)[C@@H](O[C@H]2O[C@@H](CN)[C@@H](O)[C@@H](O)[C@@H]2N)[C@@H](O[C@H]2O[C@@H](CO)[C@@H](O)[C@@H]2O)[C@@H]1O in the same way. f

Proceed to CCN[C@]1(c2cccs2)CCCCC1=O f

Another compound to look at: Clc1ccc([C@@H](OCCN2CCCCC2)c2ccccc2)cc1 t

Ok, now CC[C@@H]1[C@@H]2C[C@H]3[C@H]4N(C)c5ccccc5[C@@]45C[C@@H]([C@@H]2[C@@H]5O)N3[C@H]1O f

Another compound to look at: COc1cc2c(cc1OC)[C@@]13CCN4CC5=CCOC6CC(=O)N2C1[C@H]6[C@@H]5C[C@@H]43 (stereo partly drawn) f

Follow-up item: C[C@@]12CCC(=O)C=C1C=C[C@H]1[C@H]3CC[C@](O)(CCC(=O)O)[C@]3(C)CC[C@@H]12 f

Record: COc1cc(N)c(Cl)cc1C(=O)N[C@@H]1CN2CCC1CC2 f

Input C[N+]1(C)[C@@H]2CC[C@H]1CC(OC(=O)[C@@H](CO)c1ccccc1)C2 (stereo partly drawn) f

====

- target or system: Guanidinoacetate N-methyltransferase (Homo sapiens) (UniProt Q14353)
- experimental details: Confirmatory Screen for Target Class Profiling of Small Molecule Inhibitors of Methyltransferases (AID 1745852); further: on the % scale 0 is the no-effect control and ±100 the full control effect
- conditions used: MTase-Glo luminescence, SAH detection, recombinant enzyme; at 85.7 µM (top of the series) unless noted
Consider the following molecules; for each one, report its activity change, negative = inhibition.
Answers are plain numbers, in %.

Recorded activity change, negative = inhibition, per entry:
CC(=O)NC[C@H]1C[C@@H]2CCN1C[C@@H]2c1cc(-c2ccc3ccccc3c2)nn1C: 4.16
COc1ccc(-c2cc([C@H]3CN4CC[C@H]3C[C@@H]4CN)nc(C)n2)cc1OC: 1.77
CN(CCc1ccccn1)C[C@H]1CN2CC[C@H]1C[C@@H]2CNC(=O)Nc1ccsc1: 6.86

activity change, negative = inhibition for NC(=O)c1ccc(N2CC3CCC(C2)N3CC(F)(F)F)nn1 ? 9.09

====

- experimental details: Cytotoxicity counterscreen for inhibitors of SARS-CoV-2 cell entry (AID 1645845); further: nearly all actives have a fitted effect of over 50% in size
- conditions used: cell viability (SARS-CoV-2 entry assay cells); series mostly up to 57.1 µM
Results filed as inconclusive are left out. Active and inactive are the calls of the source. Calls follow the shape of the full dose curve.
Give your call using only these classes: class 1 for active, class 0 for inactive

Answered cases to consult:
C#C[C@]1(OC(C)=O)CC[C@H]2[C@@H]3CCC4=CC(=O)CC[C@@H]4[C@H]3CC[C@@]21C: class 0
CO[C@H]1/C=C/O[C@@]2(C)Oc3c(C)c(O)c4c(O)c(c(/C=N/N5CCN(C)CC5)c(O)c4c3C2=O)NC(=O)/C(C)=C\C=C\[C@H](C)[C@H](O)[C@@H](C)[C@@H](O)[C@@H](C)[C@H](OC(C)=O)[C@@H]1C: class 0

Outcome logged for O=C(O)CNC(=O)C1C(=O)N(C2CCCCC2)C(=O)N(C2CCCCC2)C1=O in this assay: class 0

====

Kindly state max response for each of the entries shown.
- experimental details: qHTS Assay for Lipid Storage Modulators (AID 1519)
- conditions used: Drosophila S3 cells, BODIPY lipid droplet/cell ratio, laser cytometry; measured here: cell count channel max response; cells loaded with oleic acid
Inconclusive results are not listed.
Give bare numbers, in %.

Answered cases to consult:
O=C1C=C2C=C[C@H]3C[C@@]2(O1)[C@H]1CCCCN31: -16.7
C[C@@]12CC(c3ccoc3)OC(=O)C1CC[C@@]1(C)C2C2C=C[C@@]1(O)C(=O)O2 (stereo not given in full): 24.2

Would you be so kind as to report max response for each listed record?
1. O=S1OCC2C(CO1)C1(Cl)C(Cl)=C(Cl)C2(Cl)C1(Cl)Cl (stereo not given)
2. COc1cc(C2c3cc4c(cc3C(O)C3COC(=O)C23)OCO4)cc(OC)c1O (stereo not given)
3. CCOCN(C(=O)CCl)c1c(C)cccc1CC

[-0.733, -1.69, -6.11]

====

- experimental details: Cytotoxicity counterscreen for inhibitors of SARS-CoV-2 cell entry (AID 1645845); further: nearly all actives have a fitted effect of over 50% in size
- conditions used: cell viability (SARS-CoV-2 entry assay cells); series mostly up to 57.1 µM
Results filed as inconclusive are left out. Calls of active or inactive are those of the source. The call rests on the fitted dose curve.
Valid outcomes are listed here; reply with one: active, inactive

Below are worked cases with known answers.
C[C@]12CCC(=O)C=C1CC[C@@H]1[C@@H]2[C@@H](O)C[C@@]2(C)[C@H]1CC[C@]2(O)C(=O)COP(=O)(O)O: inactive
NCc1ccc(OCCCc2sc(-c3ccc4c(c3)/C(=N/Nc3nc5ccccc5s3)CCC4)nc2C(=O)O)cc1: inactive
CC(C)(O)CNc1nc(Nc2ccnc(C(F)(F)F)c2)nc(-c2cccc(C(F)(F)F)n2)n1: inactive
Cc1oc(-c2ccccc2)nc1CCOc1ccc(CC2C(=O)NOC2=O)cc1 (centres undefined): inactive
C[C@@H]1C[C@H]2[C@@H]3C[C@H](F)C4=CC(=O)C=C[C@]4(C)[C@@]3(F)[C@@H](O)C[C@]2(C)[C@@]1(O)C(=O)COC(=O)C(C)(C)C: inactive
Cc1c(F)cccc1NC(=O)Nc1ccc(Cl)c(S(=O)(=O)[C@H]2CCCNC2)c1O: inactive
N[C@@H]1CN(c2c(F)cc3c(=O)c(C(=O)O)cn([C@@H]4C[C@@H]4F)c3c2Cl)CC12CC2: inactive
CC1=C(c2ccc(O)cc2)[C@H](c2ccc(OCCN3CCCCC3)cc2)Oc2cc(O)ccc21: inactive

Could you kindly confirm the outcome this assay logged for NC(=O)c1ccc[n+]([C@@H]2O[C@H](COP(=O)([O-])OP(=O)(O)OC[C@H]3O[C@@H](n4cnc5c(N)ncnc54)[C@H](O)[C@@H]3O)[C@@H](O)[C@H]2O)c1 ? inactive

Try this compound next: NC[C@@](O)(c1ccc(Cl)cc1)c1ccc(-c2cn[nH]c2)cc1 active

====

I'd be grateful if you could share measured activity change, negative = inhibition for these entries.
- experimental details: Primary qHTS to identify inhibitors of SARS-CoV-2 cell entry (AID 1645846); further: nearly all actives have a fitted effect of over 45% in size
- conditions used: SARS-CoV-2 pseudovirus cell entry assay, luminescence; at 57.1 µM (top of the series) unless noted
- Source text: Assay Provider: Wei Zheng, Ph.D. National Center for Advancing Translational Sciences, National Institute of Health, Rockville, MD. SARS-CoV-2 spike protein, within the viral envelope, mediates viral attachment and infection of host cells. The SARS-CoV-2 spike protein specifically binds to the host receptor ACE2 (Angiotensin-converting enzyme 2). […] 11. […] Read luminescence signal (Viewlux plate reader, PerkinElmer). […]
Results filed as inconclusive are left out.

CCNC(=O)CCC/C=C\C[C@@H]1[C@@H](/C=C/[C@@H](O)CCc2ccccc2)[C@H](O)C[C@@H]1O: -19.7%
CC(C)(S)[C@H](N)C(=O)O: -28.5% [at 5.25 µM]

Consider the following items and state reported activity change, negative = inhibition for each.
1. CC(=O)Nc1c(I)c(C(=O)O)c(I)c(N(C)C(C)=O)c1I
2. CCOC(=O)c1c[nH]c2cc(OCC(C)C)c(OCC(C)C)cc2c1=O
3. O=C(NOCCO)c1ccc2cncn2c1Nc1ccc(I)cc1F
4. COc1cc(C[C@@H]2NCCc3cc(O)c(O)cc32)cc(OC)c1OC

-20.3%
-18.7%
-11.2%
-18.7%
